Consider the following compounds; for each one, report its TGI.
Tested on: DMS 114 small cell lung
Test: NCI tumour cell line growth inhibition, 48 h

>  <Compound>
COc1cc(/C=C/c2cccnc2)cc(OC)c1OC

>  <Target or test system>
DMS 114 small cell lung

>  <Measurement label>
TGI

>  <Observed>
> 100 µM

$$$$
>  <Compound>
O=[N+]([O-])c1cccc2nc3ccccc3c(NCCO)c12

>  <Target or test system>
DMS 114 small cell lung

>  <Measurement label>
TGI

>  <Observed>
0.0142 µM

$$$$
>  <Compound>
CCC(C)NC1=C(NC(C)=O)C(=O)c2ccccc2C1=O (stereo unspecified)

>  <Target or test system>
DMS 114 small cell lung

>  <Measurement label>
TGI

>  <Observed>
> 75 µM

$$$$
>  <Compound>
O=C1c2ccccc2C(=O)N1CCn1nc(-c2ccccc2)cc(-c2ccccc2)c1=O

>  <Target or test system>
DMS 114 small cell lung

>  <Measurement label>
TGI

>  <Observed>
> 100 µM

$$$$
>  <Compound>
C[Si]1(C)C(c2ccccc2)=CC2C(c3ccccc3)(c3ccccc3)OC21c1ccccc1 (stereo unspecified)

>  <Target or test system>
DMS 114 small cell lung

>  <Measurement label>
TGI

>  <Observed>
> 100 µM

$$$$

Tell me its TGI given `COC(=O)c1nc(-c2ccc(Cl)c(Cl)c2)nc2ccc(Cl)cc12` as the entry.
> 100 µM
